The origin of these recorded values is patent US20200216416A1.

Parameter: pIC50. Scope: all listed entries.
- tgt: MET (wt) GST-tagged recombinant human MET kinase domain (Homo sapiens, UniProt P08581)
- Construct: GST-tagged recombinant human MET kinase domain
- Sequence (P08581 1078-1345 limits assumed): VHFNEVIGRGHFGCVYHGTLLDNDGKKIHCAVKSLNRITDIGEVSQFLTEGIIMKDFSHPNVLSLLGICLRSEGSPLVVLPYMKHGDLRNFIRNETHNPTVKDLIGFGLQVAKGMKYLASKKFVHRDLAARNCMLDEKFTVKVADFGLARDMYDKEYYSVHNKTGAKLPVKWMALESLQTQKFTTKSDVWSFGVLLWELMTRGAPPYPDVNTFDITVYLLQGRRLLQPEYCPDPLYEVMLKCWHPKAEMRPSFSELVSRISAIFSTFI
- test-description: c-Met Enzyme Assay, wild type (LanthaScreen Eu Kinase Binding)
- applied-conditions: averaged IC50; MET (wt) 10 nM; 60-minute incubation at 22° C.; read-out: SigChem WT IC50
pIC50: −log10 of the molar value.
metric-name: pIC50

> print(dat)
                                   compound  reported.measurement
1  COc1cc2nccc(Oc3ccc(NC(=O)c4cn(C(C)C)cc(-c5ccc(F)cc5)c4=O)cn3)c2cc1OC [Example 58]                  8.57
2  COc1cc2nccc(Oc3ccc(NC(=O)c4cn(CCN(C)C)cc(-c5ccc(Cl)cc5)c4=O)nc3)c2cc1OC [Example 42]                  8.49
3  COc1cc2nc(C)cc(Oc3ccc(NC(=O)c4cn(C(C)C)cc(-c5ccc(F)cc5)c4=O)nc3)c2cc1OC [Example 53]                  5.51
4  CCc1c(-c2ccc(F)cc2)c(=O)c(C(=O)Nc2ccc(Oc3ccnc4cc(OC)c(OC)cc34)cn2)cn1C(C)C [Example 29]                  8.37

====

- tgt: human MET kinase D1228N (Homo sapiens, UniProt P08581, D1228N)
- Construct: GST-tagged recombinant human MET kinase domain
- Sequence (P08581 1078-1345 D1228N): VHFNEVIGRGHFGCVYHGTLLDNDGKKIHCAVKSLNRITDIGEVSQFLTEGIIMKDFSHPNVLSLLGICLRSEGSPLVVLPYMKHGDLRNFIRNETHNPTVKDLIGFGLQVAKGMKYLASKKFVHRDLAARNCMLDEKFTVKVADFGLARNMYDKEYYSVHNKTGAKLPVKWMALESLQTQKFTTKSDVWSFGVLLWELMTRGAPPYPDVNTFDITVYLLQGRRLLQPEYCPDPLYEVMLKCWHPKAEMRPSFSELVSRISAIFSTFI
- test-description: c-Met Enzyme Assay, D1228N mutant
- applied-conditions: averaged IC50; D1228N 2 nM; 60-minute incubation at 22° C.; read-out: D1228 N IC50
metric-name: log10 IC50 (log10 of the value in nM)

> print(dat)
                                   compound  reported.measurement
1  CCc1c(-c2ccc(F)cc2)c(=O)c(C(=O)Nc2ccc(Oc3ccnc4cc(OC)c(OC)cc34)cn2)cn1C(C)C [Example 29]                  0.49
2  COc1cc2nccc(Oc3ccc(NC(=O)c4cn(CC(=O)N(C)C)cc(-c5ccc(F)c(F)c5)c4=O)nc3)c2cc1OC [Example 24]                  1.56
3  COc1cc2nccc(Oc3cnc(NC(=O)c4cn(C(C)C)cc(-c5ccc(F)cc5)c4=O)nc3)c2cc1OC [Example 54]                  0.92
4  COc1cc2nccc(Oc3ccc(NC(=O)c4cn(CC(C)C)cc(-c5ccc(F)cc5)c4=O)nc3)c2cc1OC [Example 11]                  0.97
5  COc1cc2nccc(Oc3ccc(NC(=O)c4cn(CC(=O)N(C)C)cc(-c5ccc(F)cc5F)c4=O)nc3)c2cc1OC [Example 13]                  1.06
6  COc1cc2nccc(Oc3ccc(NC(=O)c4cn(CCN(C)C)cc(-c5ccc(F)cc5F)c4=O)nc3)c2cc1OC [Example 44]                  0.51
7  COc1cc2nccc(Oc3ccc(NC(=O)c4cn(C(C)C)cc(-c5ccc(F)cc5Cl)c4=O)nc3)c2cc1OC [Example 18]                  0.67

====

- tgt: human MET kinase Y1230H (Homo sapiens, UniProt P08581, Y1230H)
- Construct: GST-tagged recombinant human MET kinase domain
- Sequence (P08581 1078-1345 Y1230H): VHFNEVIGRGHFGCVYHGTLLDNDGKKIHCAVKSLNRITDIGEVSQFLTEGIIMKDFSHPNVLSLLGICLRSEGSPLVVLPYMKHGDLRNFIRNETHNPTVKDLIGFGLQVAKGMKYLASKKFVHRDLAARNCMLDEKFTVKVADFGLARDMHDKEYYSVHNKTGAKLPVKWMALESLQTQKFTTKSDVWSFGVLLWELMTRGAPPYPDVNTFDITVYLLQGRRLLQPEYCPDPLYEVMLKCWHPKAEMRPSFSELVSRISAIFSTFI
- test-description: c-Met Enzyme Assay, Y1230H mutant
- applied-conditions: averaged IC50; Y1230H 5 nM; 60-minute incubation at 22° C.; read-out: Y1230 H IC50
pIC50: −log10 of the molar value.
metric-name: pIC50

> print(dat)
                                    molecule  reported.measurement
 1  COc1cc2nccc(Oc3ccc(NC(=O)c4cn(CC(C)(C)O)cc(-c5ccc(F)cc5)c4=O)nc3)c2cc1OC [Example 9]                  7.88
 2  COc1cc2nccc(Oc3ccc(NC(=O)c4cn(CCN(C)C)cc(-c5ccc(Cl)cc5)c4=O)nc3)c2cc1OC [Example 42]                  8.17
 3  COc1cc2nccc(Oc3ccc(NC(=O)c4cn(CCC(C)C)cc(-c5ccc(F)cc5)c4=O)nc3)c2cc1OC [Example 34]                  8.23
 4  CNC(=O)Cn1cc(C(=O)Nc2ccc(Oc3ccnc4cc(OC)c(OC)cc34)cn2)c(=O)c(-c2ccc(F)cc2)c1 [Example 22]                  8.37
 5  COc1cc2nccc(Oc3ccc(NC(=O)c4cn(CC(=O)N5CCCC5)cc(-c5ccc(F)cc5F)c4=O)nc3)c2cc1OC [Example 14]                  7.65
 6  COCCn1cc(C(=O)Nc2ccc(Oc3ccnc4cc(OC)c(OC)cc34)cn2)c(=O)c(-c2ccc(F)cc2)c1 [Example 7]                  8.27
 7  COc1cc2nc(C)cc(Oc3ccc(NC(=O)c4cn(C(C)C)cc(-c5ccc(F)cc5)c4=O)nc3)c2cc1OC [Example 53]                  5.78
 8  CCn1cc(C(=O)Nc2ccc(Oc3ccnc4ccc(OC)cc34)cn2)c(=O)c(-c2ccc(F)cc2)c1 [Example 39]                  6.68
 9  COc1cc2c(Oc3ccc(NC(=O)c4cn(C(C)C)cc(-c5ccc(F)cc5)c4=O)nc3)ccnc2cc1OCCCN1CCOCC1 [Example 56]                  8.28
10  COc1cc2nccc(Oc3ccc(NC(=O)c4cn(CC(=O)N(C)C)cc(-c5ccc(F)cc5)c4=O)nc3)c2cc1OC [Example 23]                  8.11
11  COc1cc2nccc(Oc3ccc(NC(=O)c4cn(C(C)C)cc(-c5ccc(F)cc5OC)c4=O)nc3)c2cc1OC [Example 32]                  7.92
12  COc1ccc2nccc(Oc3ccc(NC(=O)c4cn(C)cc(-c5ccc(F)cc5)c4=O)nc3)c2c1 [Example 41]                  6.48
13  COc1cc2nccc(Oc3ccc(NC(=O)c4cn(C(C)C)cc(-c5ccc(F)cc5F)c4=O)nc3)c2cc1OC [Example 4]                  8.31
14  COc1cc2nccc(Oc3ccc(NC(=O)c4cn(C)cc(-c5ccc(F)cc5)c4=O)nc3)c2cc1OC [Example 2]                  7.74
15  COc1cc2nccc(Oc3ccc(NC(=O)c4cn(CC(=O)N(C)C)cc(-c5ccc(F)cc5F)c4=O)nc3)c2cc1OC [Example 13]                  8.24
16  COc1cc2c(Oc3ccc(NC(=O)c4cn(C(C)C)c(C)c(-c5ccc(F)cc5)c4=O)nc3)ccnc2cc1F [Example 48]                  7.80
17  CCn1cc(C(=O)Nc2ccc(Oc3ccnc4cc(OC)c(OC)cc34)cn2)c(=O)c(-c2ccc(F)cc2)c1 [Example 3]                  8.19
18  COc1cc2nccc(Oc3ccc(NC(=O)c4cn(CCC(C)C)cc(-c5ccc(Cl)cc5)c4=O)nc3)c2cc1OC [Example 37]                  7.77
19  COc1cc2nccc(Oc3ccc(NC(=O)c4cn(CC(=O)N5CCOCC5)cc(-c5ccc(F)cc5F)c4=O)nc3)c2cc1OC [Example 15]                  7.43
20  COc1cc2nccc(Oc3ccc(NC(=O)c4cn(C(C)C)cc(-c5ccc(F)c(Cl)c5)c4=O)nc3)c2cc1OC [Example 21]                  7.29
21  COc1cc2ncc(C#N)c(Oc3ccc(NC(=O)c4cn(C(C)C)cc(-c5ccc(F)cc5)c4=O)nc3)c2cc1OC [Example 57]                  6.10
22  COc1ccc(-c2cn(C(C)C)cc(C(=O)Nc3ccc(Oc4ccnc5cc(OC)c(OC)cc45)cn3)c2=O)cc1 [Example 30]                  6.99
23  COc1cc2nccc(Oc3ccc(NC(=O)c4cn(C(C)C)cc(-c5ccc(F)cc5)c4=O)nc3)c2cc1OC [Example 1]                  8.54
24  COc1cc2nccc(Oc3ccc(NC(=O)c4cn(CCN(C)C)cc(-c5ccc(F)cc5)c4=O)nc3)c2cc1OC [Example 46]                  8.47
25  COc1cc2nccc(Oc3ccc(NC(=O)c4cn(C)c(C(C)C)c(-c5ccc(F)cc5)c4=O)nc3)c2cc1OC [Example 45]                  8.00
26  CCc1c(-c2ccc(F)cc2)c(=O)c(C(=O)Nc2ccc(Oc3ccnc4cc(OC)c(OC)cc34)cn2)cn1C(C)C [Example 29]                  8.38
27  COc1cc2nccc(Oc3ccc(NC(=O)c4cn(CC(=O)N(C)C)cc(-c5ccc(Cl)cc5)c4=O)nc3)c2cc1OC [Example 25]                  7.67
28  COc1cc2nccc(Oc3ccc(NC(=O)c4cn(C(C)C)cc(-c5ccc(Cl)cc5)c4=O)nc3)c2cc1OC [Example 5]                  7.78
